Test: terephthalic acid (TPA) released, HPLC; higher = more TPA released; extreme values may be limits of the assay
Details: PET substrate: aFilm; 60 °C; pH 5.5; 24 h
Listed sequences paired with reported terephthalic acid
Expressed in mM, but write only the number.

# count of solved cases: 5
Exam item: Please look up its terephthalic acid: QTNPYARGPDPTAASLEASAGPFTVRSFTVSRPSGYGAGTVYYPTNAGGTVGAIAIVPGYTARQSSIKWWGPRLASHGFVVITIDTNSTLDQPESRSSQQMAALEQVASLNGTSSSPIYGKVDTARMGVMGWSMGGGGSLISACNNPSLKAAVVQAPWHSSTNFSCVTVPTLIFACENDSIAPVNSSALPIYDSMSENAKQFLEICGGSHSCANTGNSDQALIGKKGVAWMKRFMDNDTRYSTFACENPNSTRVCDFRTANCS [Z1-PETase]
Marked response: 0

Exam item: I'd like to know its terephthalic acid. The sequence in question is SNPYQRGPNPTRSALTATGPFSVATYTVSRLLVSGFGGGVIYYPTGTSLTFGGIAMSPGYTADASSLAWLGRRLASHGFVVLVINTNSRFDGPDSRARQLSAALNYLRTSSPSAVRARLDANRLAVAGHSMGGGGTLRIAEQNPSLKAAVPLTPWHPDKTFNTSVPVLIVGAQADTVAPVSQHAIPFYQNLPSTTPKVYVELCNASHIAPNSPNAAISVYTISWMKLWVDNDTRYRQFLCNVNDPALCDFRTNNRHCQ [LCC-ICCG I6M]
Marked response: 0.39

Exam item: Consider the sequence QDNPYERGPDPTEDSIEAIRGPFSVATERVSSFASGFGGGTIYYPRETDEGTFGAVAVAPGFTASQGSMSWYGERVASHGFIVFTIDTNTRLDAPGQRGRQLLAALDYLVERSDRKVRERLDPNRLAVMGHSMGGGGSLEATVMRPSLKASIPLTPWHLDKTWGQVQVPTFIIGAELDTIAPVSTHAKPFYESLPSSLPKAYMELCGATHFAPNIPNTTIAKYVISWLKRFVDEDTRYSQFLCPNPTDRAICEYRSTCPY [Cut190*SS] and give its measured terephthalic acid.
Marked response: 0

Exam item: # lookup: terephthalic acid of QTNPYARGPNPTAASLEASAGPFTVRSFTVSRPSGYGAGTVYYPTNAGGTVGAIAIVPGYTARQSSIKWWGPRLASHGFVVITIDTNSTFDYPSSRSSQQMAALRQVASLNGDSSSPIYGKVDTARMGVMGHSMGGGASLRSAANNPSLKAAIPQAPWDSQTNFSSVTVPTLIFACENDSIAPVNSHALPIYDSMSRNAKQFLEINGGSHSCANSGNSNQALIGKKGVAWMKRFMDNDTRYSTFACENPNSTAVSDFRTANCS [DuraPETase]
Marked response: 0

Exam item: # lookup: terephthalic acid of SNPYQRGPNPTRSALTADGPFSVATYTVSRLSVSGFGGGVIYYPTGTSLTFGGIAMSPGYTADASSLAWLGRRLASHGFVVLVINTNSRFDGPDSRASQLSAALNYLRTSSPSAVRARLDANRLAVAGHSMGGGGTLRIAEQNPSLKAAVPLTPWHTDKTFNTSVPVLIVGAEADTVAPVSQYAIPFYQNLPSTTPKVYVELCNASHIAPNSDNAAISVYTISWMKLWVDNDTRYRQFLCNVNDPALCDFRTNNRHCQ [LCC-A2]
Marked response: 0.792

Now take the following sequence into account.
Exam item: Look up terephthalic acid: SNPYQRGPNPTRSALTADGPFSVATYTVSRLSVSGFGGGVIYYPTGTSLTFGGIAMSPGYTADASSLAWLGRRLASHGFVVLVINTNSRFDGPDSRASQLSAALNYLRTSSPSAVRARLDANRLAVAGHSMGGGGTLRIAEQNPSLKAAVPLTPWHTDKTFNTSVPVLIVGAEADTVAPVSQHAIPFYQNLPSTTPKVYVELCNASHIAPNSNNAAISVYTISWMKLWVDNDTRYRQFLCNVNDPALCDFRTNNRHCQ [LCC-ICCG]
Marked response: 0.309
